Every entry's value here was drawn from ChEMBL document CHEMBL4033712.

Tested on: NCI-H460
experimental_details: Anticancer activity against human NCI-H460 cells assessed as cell growth at 10 uM after 48 hrs by sulforhodamine B assay relative to control
Format: functional
conditions: NCI-H460, 48 h, read-out: Activity
growth at 10 µM values by entry
Write down the numeric answer in % and omit the unit.

Example compounds with recorded growth at 10 µM:
{"compound": "C=C1CC[C@@H]2[C@](C)(COC(C)=O)[C@H](OC(C)=O)CC[C@@]2(C)[C@H]1CC(Nc1ccc(S(=O)(=O)Nc2nc(C)cc(C)n2)cc1)C1=CCOC1=O (stereo partly drawn)", "uom": "%", "reported_measurement": 90.3}
{"compound": "C=C1CC[C@@H]2[C@](C)(COC(C)=O)[C@H](OC(C)=O)CC[C@@]2(C)[C@H]1CC(Nc1ccc(S(=O)(=O)Nc2nccs2)cc1)C1=CCOC1=O (stereo partly drawn)", "uom": "%", "reported_measurement": 29.5}

Now look at this entry.
-- ask Data request, read-out growth at 10 µM, for C=C1CC[C@@H]2[C@](C)(COC(C)=O)[C@H](OC(C)=O)CC[C@@]2(C)[C@H]1CC(Nc1ccc(S(=O)(=O)Nc2ncccn2)cc1)C1=CCOC1=O (stereo partly drawn)
-- reply 18.1

###

Test system: NCI-H23
experimental_details: Anticancer activity against human NCI-H23 cells assessed as cell growth at 10 uM after 48 hrs by sulforhodamine B assay relative to control
Format: functional
conditions: NCI-H23, 48 h, read-out: Activity
Label Fulfilled for high-side growth at 10 µM (at or above 60%) and Not fulfilled for low-side growth at 10 µM (below it).

Examples from the recorded data:
{"compound": "C=C1CC[C@@H]2[C@](C)(COC(C)=O)[C@H](OC(C)=O)CC[C@@]2(C)[C@H]1CC(Nc1ccc(S(=O)(=O)Nc2nc(C)cc(C)n2)cc1)C1=CCOC1=O (stereo partly specified)", "class_assignment": "Fulfilled"}
{"compound": "C=C1CC[C@@H]2[C@](C)(COC(C)=O)[C@H](OC(C)=O)CC[C@@]2(C)[C@H]1CC(Nc1ccc(S(=O)(=O)Nc2cc(C)on2)cc1)C1=CCOC1=O (stereo partly specified)", "class_assignment": "Fulfilled"}
{"compound": "C=C1CC[C@@H]2[C@](C)(COC(C)=O)[C@H](OC(C)=O)CC[C@@]2(C)[C@H]1CC(Nc1ccc(S(=O)(=O)Nc2ncccn2)cc1)C1=CCOC1=O (stereo partly specified)", "class_assignment": "Not fulfilled"}
{"compound": "C=C1CC[C@@H]2[C@](C)(COC(C)=O)[C@H](OC(C)=O)CC[C@@]2(C)[C@H]1CC(Nc1ccc(S(=O)(=O)Nc2nccc(C)n2)cc1)C1=CCOC1=O (stereo partly specified)", "class_assignment": "Not fulfilled"}

Now for another entry.
-- ask Exam item: decide whether the reported growth at 10 µM for C=C1CC[C@@H]2[C@](C)(COC(C)=O)[C@H](OC(C)=O)CC[C@@]2(C)[C@H]1CC(Nc1ccc(S(=O)(=O)Nc2nccs2)cc1)C1=CCOC1=O (stereo partly specified) is at least 60%.
-- reply Not fulfilled

###

Listed below: TGI values for each entry.
Test system: HCT-15
experimental_details: Growth inhibition of human HCT15 cells incubated for 48 hrs by sulforhodamine B assay
Format: functional
conditions: HCT-15, 48 h

Known results for compounds:
{"compound": "C=C1CC[C@@H]2[C@](C)(COC(C)=O)[C@H](OC(C)=O)CC[C@@]2(C)[C@H]1CC(Nc1ccc(S(=O)(=O)Nc2ncccn2)cc1)C1=CCOC1=O (stereo not given in full)", "reported_measurement": "3.32 µM"}
{"compound": "C=C1CC[C@@H]2[C@](C)(COC(C)=O)[C@H](OC(C)=O)CC[C@@]2(C)[C@H]1CC(Nc1ccc(S(=O)(=O)Nc2cc(C)on2)cc1)C1=CCOC1=O (stereo not given in full)", "reported_measurement": "3.83 µM"}
{"compound": "C=C1CC[C@@H]2[C@](C)(COC(C)=O)[C@H](OC(C)=O)CC[C@@]2(C)[C@H]1CC(Nc1ccc(S(=O)(=O)Nc2ccc(Cl)nn2)cc1)C1=CCOC1=O (stereo not given in full)", "reported_measurement": "2.3 µM"}

-- ask I'm curious: which TGI was measured for C=C1CC[C@@H]2[C@](C)(COC(C)=O)[C@H](OC(C)=O)CC[C@@]2(C)[C@H]1CC(Nc1ccc(S(=O)(=O)Nc2nccs2)cc1)C1=CCOC1=O (stereo not given in full) tested on HCT-15?
-- reply 4.12 µM

-- ask Check C=C1CC[C@@H]2[C@](C)(COC(C)=O)[C@H](OC(C)=O)CC[C@@]2(C)[C@H]1CC(Nc1ccc(S(=O)(=O)Nc2nccc(C)n2)cc1)C1=CCOC1=O (stereo not given in full) too.
-- reply 4.24 µM
